Target: Transthyretin (Homo sapiens, UniProt P02766)
readout: Kd (µM)
Hi! Could you send only the number? It should be in µM, unit omitted.

[Q] Quick check: Kd on Transthyretin (Homo sapiens, UniProt P02766), item Cc1n[nH]c(C)c1CCCOc1cc(OCCCc2cn(CCOCCOCCOCCOCCNC(=O)C3CCC(CN4C(=O)C=CC4=O)CC3)nn2)cc(C(=O)O)c1 (stereo unspecified) ?
[A] 0.516
